Target: Histone acetyltransferase p300 (Homo sapiens)
Assay: Inhibition of recombinant p300 catalytic domain (unknown origin) using N-terminal histone H3 substrate by radiometric filter binding assay in presence of [3H]acetyl-CoA
PROPERTY MEASURED: IC50 (µM)

smiles_repr=CCCCCCCCCCCCCCCc1cccc(O)c1C(=O)O obs_value=4.15

###

Molecular target: Histone acetyltransferase p300 (Homo sapiens)
Test: Inhibition of recombinant p300 catalytic domain (unknown origin) using N-terminal histone H3 substrate by radiometric filter binding based phenotypic screen in presence of [3H]acetyl-CoA
PROPERTY MEASURED: IC50 (µM)

smiles_repr=COc1ccc(S(=O)(=O)ON=C2C=C(C)C(=O)C(C)=C2)cc1 property_measured=IC50 unit=µM obs_value=128

###

Molecular target: Histone acetyltransferase KAT2B (Homo sapiens)
Test: Inhibition of full length recombinant FLAG-tagged PCAF (unknown origin) expressed in baculovirus expression system using histone substrate after 10 mins by liquid scintillation counting method in presence of [3H]acetyl-CoA
PROPERTY MEASURED: IC50

smiles_repr=CCCCCCCCCCCC1=C(O)C(=O)C=C(O)C1=O measured_on="Histone acetyltransferase KAT2B (Homo sapiens)" obs_value="7.2 µM"

###

Target: Histone acetyltransferase p300 (Homo sapiens)
Assay: Inhibition of human recombinant p300 catalytic domain (1284 to 1673 residues) expressed in Escherichia coli using H4-8 peptide substrate by radiometric assay in presence of [3H]acetyl-CoA
PROPERTY MEASURED: IC50 (nM)

smiles_repr=CC(C)(C)OC(=O)NCCCCCNC(=O)CSCCNC(=O)CCNC(=O)[C@H](O)C(C)(C)COP(=O)(O)OP(=O)(O)OC[C@H]1O[C@@H](n2cnc3c(N)ncnc32)[C@H](O)[C@@H]1OP(=O)(O)O unit=nM obs_value=70

###

Biological target: CREB-binding protein (Homo sapiens)
Sequence (Q92793 whole entry): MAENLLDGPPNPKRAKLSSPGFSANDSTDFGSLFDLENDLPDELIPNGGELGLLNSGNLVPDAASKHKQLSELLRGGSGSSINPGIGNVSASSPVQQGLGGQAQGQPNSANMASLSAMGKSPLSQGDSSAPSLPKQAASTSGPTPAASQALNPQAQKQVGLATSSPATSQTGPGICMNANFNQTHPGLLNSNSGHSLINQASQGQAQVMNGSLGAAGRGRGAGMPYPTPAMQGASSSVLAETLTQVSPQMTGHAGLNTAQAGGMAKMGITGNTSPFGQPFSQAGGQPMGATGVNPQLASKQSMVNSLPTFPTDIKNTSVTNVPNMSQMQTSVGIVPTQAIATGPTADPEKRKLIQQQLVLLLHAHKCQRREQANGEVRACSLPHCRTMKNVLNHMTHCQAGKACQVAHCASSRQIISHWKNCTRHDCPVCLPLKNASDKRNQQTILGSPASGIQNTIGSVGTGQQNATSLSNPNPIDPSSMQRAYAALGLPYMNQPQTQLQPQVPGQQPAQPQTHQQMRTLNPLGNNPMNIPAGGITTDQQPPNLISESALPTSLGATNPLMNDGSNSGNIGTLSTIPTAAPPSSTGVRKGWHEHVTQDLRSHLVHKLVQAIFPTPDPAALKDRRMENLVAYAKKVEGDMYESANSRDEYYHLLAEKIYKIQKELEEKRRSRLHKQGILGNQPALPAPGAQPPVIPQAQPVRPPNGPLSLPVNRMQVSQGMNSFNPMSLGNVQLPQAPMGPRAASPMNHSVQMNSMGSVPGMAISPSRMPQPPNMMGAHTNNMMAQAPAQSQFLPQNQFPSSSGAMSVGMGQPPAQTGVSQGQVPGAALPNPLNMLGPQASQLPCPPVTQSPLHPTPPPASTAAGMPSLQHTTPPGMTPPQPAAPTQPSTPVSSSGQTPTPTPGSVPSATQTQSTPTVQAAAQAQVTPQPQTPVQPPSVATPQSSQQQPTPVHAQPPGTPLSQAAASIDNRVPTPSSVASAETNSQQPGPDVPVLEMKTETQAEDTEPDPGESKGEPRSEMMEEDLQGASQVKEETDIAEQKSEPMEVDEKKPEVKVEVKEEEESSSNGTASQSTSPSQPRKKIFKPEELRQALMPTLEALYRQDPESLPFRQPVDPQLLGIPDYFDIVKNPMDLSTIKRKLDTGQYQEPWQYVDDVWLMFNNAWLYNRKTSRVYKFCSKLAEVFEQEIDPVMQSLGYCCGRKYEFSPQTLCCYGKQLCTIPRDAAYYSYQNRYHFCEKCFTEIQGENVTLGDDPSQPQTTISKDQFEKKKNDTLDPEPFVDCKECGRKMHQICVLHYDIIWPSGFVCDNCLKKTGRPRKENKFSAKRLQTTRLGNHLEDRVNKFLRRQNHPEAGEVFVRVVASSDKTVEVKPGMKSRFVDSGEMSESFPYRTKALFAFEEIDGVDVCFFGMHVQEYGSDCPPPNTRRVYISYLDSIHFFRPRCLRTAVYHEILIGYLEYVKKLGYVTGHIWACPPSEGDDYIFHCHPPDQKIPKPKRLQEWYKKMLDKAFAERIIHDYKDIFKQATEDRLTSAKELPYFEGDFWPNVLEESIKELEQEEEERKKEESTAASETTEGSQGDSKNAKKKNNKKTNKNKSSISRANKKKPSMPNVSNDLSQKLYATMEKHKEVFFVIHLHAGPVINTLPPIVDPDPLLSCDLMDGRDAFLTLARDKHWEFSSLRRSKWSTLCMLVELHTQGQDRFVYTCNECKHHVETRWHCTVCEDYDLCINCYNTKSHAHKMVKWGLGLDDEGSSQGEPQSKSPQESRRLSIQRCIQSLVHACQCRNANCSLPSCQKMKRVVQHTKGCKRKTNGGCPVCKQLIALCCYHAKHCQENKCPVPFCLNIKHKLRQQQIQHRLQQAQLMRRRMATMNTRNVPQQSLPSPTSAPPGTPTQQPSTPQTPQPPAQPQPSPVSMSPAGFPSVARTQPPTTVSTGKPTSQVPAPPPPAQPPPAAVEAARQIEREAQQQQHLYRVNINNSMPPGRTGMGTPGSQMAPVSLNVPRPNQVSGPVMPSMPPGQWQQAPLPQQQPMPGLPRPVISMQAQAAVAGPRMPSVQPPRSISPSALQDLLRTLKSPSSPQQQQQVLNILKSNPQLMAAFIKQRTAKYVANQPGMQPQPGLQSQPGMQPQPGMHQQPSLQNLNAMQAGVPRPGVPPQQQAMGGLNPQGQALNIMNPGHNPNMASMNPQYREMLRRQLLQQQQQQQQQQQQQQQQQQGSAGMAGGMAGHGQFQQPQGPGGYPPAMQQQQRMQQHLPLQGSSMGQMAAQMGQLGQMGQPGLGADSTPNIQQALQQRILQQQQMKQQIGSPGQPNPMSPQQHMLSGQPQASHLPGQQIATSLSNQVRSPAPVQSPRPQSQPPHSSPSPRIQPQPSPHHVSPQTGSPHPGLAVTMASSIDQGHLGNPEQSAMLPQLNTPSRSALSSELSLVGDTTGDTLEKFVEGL
pKd: −log10 of the molar value.
PROPERTY MEASURED: pKd

smiles_repr=CCC(=O)N1CCOc2c(cc(-c3ccc(OC)c(OC)c3)cc2OC[C@H]2CCCN(C)C2)C1 obs_value=6.82

###

Target: Histone acetyltransferase KAT2B (Homo sapiens, UniProt Q92831)
Assay: Inhibition of PCAF (unknown origin) using N-terminal histone H3 substrate by radiometric filter binding based phenotypic screen in presence of [3H]acetyl-CoA
PROPERTY MEASURED: IC50

smiles_repr=COc1ccc(S(=O)(=O)ON=C2C=C(C)C(=O)C(C)=C2)cc1 measured_on="Histone acetyltransferase KAT2B (Homo sapiens, UniProt Q92831)" obs_value="34.7 µM"

###

Molecular target: Histone acetyltransferase ESA1 (Saccharomyces cerevisiae (strain ATCC 204508 / S288c) (Baker's yeast), UniProt Q08649)
Test: Inhibition of yeast ESA1 using N-terminal histone H3 substrate by radiometric filter binding based […] in presence of [3H]acetyl-CoA
pIC50: −log10 of the molar value.
PROPERTY MEASURED: pIC50

molecule="COc1ccc(C2CC(c3cccs3)=NN2c2nc(-c3ccc(N4C(=O)c5ccccc5C4=O)cc3)cs2)cc1OC (stereo unspecified)" property_measured=pIC50 obs_value=3.72

###

Biological target: Histone acetyltransferase KAT5 (Homo sapiens)
Assay: Inhibition of recombinant TIP60 (unknown origin) using histone H4 peptide substrate assessed as reduction in NADH formation by spectrophotometric analysis
PROPERTY MEASURED: IC50 (µM)

molecule="O=C(O[C@@H]1Cc2c(O)cc(O)cc2O[C@@H]1c1cc(O)c(O)c(O)c1)c1cc(O)c(O)c(O)c1 [EPIGALOCATECHIN GALLATE]" measured_on="Histone acetyltransferase KAT5 (Homo sapiens)" unit=µM obs_value=70

###

Target: Histone acetyltransferase p300 (Homo sapiens, UniProt Q09472)
Sequence (Q09472 whole entry, the tested form may be a part): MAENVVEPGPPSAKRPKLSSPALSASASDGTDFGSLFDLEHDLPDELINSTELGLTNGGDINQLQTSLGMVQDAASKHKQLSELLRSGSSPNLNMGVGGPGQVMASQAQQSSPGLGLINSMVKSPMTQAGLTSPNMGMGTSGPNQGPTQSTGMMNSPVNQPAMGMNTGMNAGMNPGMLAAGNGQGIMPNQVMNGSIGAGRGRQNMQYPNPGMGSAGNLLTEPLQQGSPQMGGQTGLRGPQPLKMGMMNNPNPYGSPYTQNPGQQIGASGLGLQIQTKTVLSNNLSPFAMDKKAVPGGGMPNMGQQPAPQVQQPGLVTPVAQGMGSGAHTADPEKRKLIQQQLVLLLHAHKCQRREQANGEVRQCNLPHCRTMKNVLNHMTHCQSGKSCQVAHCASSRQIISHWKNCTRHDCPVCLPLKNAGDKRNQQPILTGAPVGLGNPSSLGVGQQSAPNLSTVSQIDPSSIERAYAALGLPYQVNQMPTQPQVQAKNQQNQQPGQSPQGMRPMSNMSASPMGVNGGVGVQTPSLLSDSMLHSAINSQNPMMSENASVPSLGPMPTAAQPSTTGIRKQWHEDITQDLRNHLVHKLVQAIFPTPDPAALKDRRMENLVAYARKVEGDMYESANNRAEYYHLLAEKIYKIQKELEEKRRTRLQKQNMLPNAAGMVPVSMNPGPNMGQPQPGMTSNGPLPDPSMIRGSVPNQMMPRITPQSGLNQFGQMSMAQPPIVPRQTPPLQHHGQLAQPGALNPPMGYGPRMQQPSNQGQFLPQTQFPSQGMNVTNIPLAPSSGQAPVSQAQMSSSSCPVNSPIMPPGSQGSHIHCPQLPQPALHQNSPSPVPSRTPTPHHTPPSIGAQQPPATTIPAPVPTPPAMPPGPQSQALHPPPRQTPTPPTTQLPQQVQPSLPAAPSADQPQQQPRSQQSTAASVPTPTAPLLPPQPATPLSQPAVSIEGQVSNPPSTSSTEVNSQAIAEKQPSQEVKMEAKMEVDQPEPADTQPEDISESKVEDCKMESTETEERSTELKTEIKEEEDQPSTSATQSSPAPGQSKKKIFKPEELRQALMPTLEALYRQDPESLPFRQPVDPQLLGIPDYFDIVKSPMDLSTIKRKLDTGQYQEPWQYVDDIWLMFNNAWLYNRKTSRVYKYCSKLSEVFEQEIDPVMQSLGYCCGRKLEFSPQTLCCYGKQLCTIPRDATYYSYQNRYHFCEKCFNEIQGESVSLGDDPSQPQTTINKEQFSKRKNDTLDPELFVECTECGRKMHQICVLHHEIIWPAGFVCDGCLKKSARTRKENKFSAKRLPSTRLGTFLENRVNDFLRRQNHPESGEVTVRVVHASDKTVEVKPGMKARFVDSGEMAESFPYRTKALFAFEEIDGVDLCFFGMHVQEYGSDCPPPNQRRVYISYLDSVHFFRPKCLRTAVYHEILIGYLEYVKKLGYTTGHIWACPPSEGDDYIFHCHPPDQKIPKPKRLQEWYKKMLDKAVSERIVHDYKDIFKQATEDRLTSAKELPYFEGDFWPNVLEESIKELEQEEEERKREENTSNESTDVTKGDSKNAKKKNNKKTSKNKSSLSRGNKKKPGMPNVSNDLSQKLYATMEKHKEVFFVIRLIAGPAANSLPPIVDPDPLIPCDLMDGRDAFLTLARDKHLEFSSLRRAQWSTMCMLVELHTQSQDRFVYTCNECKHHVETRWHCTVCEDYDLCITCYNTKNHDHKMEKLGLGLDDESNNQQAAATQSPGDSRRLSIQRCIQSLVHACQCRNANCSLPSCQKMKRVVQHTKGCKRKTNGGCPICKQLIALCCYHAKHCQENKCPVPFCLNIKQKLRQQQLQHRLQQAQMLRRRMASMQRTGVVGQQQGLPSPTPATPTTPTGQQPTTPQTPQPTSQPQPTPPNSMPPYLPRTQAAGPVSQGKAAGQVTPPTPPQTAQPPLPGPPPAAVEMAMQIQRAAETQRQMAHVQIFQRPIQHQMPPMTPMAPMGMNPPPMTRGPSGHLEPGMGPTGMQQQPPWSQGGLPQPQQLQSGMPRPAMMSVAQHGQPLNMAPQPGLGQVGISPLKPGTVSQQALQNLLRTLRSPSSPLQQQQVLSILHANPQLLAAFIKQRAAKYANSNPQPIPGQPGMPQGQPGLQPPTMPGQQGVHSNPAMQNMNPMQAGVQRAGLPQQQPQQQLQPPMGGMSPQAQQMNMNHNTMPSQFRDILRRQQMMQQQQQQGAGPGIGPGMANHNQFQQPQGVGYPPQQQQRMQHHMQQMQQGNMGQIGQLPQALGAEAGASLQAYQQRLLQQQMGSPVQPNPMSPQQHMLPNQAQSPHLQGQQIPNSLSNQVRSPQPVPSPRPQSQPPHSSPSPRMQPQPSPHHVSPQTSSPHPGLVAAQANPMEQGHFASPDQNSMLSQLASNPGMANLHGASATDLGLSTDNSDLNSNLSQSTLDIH
Assay: Inhibition of recombinant full length p300 (unknown origin) using N-terminal H4-20 peptide substrate incubated for 7 mins by radiometric gel assay in presence of [14C]acetyl-CoA
PROPERTY MEASURED: IC50 (nM)

smiles_repr=CC(=O)N[C@@H](CCCCNC(=O)CSCCNC(=O)CCNC(=O)[C@H](O)C(C)(C)COP(=O)(O)OP(=O)(O)OC[C@H]1O[C@@H](n2cnc3c(N)ncnc32)[C@H](O)[C@@H]1OP(=O)(O)O)C(N)=O obs_value=50

###

Molecular target: UniProt Q92831
Experiment: Inhibition of full length recombinant human FLAG-tagged PCAF expressed in baculovirus expression system using histone substrate incubated for 10 mins by radiometric gel assay
pIC50: −log10 of the molar value.
PROPERTY MEASURED: pIC50

smiles_repr=CC(=O)N[C@@H](CCCCNC(=O)CSCCNC(=O)CCNC(=O)[C@H](O)C(C)(C)COP(=O)(O)OP(=O)(O)OC[C@H]1O[C@@H](n2cnc3c(N)ncnc32)[C@H](O)[C@@H]1OP(=O)(O)O)C(N)=O measured_on="UniProt Q92831" obs_value=3.70

###

Molecular target: Histone acetyltransferase p300 (Homo sapiens)
Assay: Inhibition of recombinant GST-tagged p300 (unknown origin) using histone H4 peptide substrate assessed as reduction in NADH formation by spectrophotometric analysis
pIC50: −log10 of the molar value.
PROPERTY MEASURED: pIC50

compound="O=C(O[C@@H]1Cc2c(O)cc(O)cc2O[C@@H]1c1cc(O)c(O)c(O)c1)c1cc(O)c(O)c(O)c1 [EPIGALOCATECHIN GALLATE]" obs_value=4.52

###

Target: Histone acetyltransferase p300 (Homo sapiens, UniProt Q09472)
PROPERTY MEASURED: Kd (nM)

smiles_repr=CCC(=O)N1CCOc2c(cc(-c3ccc(OC)c(OC)c3)cc2OC[C@H]2CCCN(C)C2)C1 measured_on="Histone acetyltransferase p300 (Homo sapiens, UniProt Q09472)" obs_value=167
